Recorded values, source PubChem BioAssay AID1159580.

Experiment Summary: chemical genetic growth profiling, strain panel (AID 1159580);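 further: tested at 20 µM; growth read once vehicle control cultures reached saturation at 30 °C; 1 = growth at the plate median or of vehicle wells; lower values mean less growth of the strain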
Condition Context: S. cerevisiae deletion strains, growth OD, locus YER016W, strain bim1, stronger effect = lower value
Hit rate of the full screen: of about 5,500 compounds, about 2,000 (36%) were called active. Roughly 18% stayed inconclusive and do not appear here. The list shows a part of the results.
Measured Metric: normalized growth

molecule=CCOc1ccc2nc3cc(N)ccc3c(N)c2c1 measured_metric="normalized growth" assay_result=0.679
molecule="CC1(C)CC[C@]2(C)CC[C@]3(C)C(=CCC4[C@@]5(C)CC[C@H](O)C(C)(C)C5CC[C@]43C)C2C1 (stereo partly specified)" measured_metric="normalized growth" assay_result=0.995
molecule="Nc1c2c(nc3ccccc13)CCCC2O (stereo unspecified)" measured_metric="normalized growth" assay_result=0.991
molecule=NNc1nncc2ccccc12 measured_metric="normalized growth" assay_result=1
molecule=CCOP(=S)(OCC)Oc1nc(Cl)c(Cl)cc1Cl measured_metric="normalized growth" assay_result=0.973
molecule=O=C1c2c(O)cccc2Cc2cccc(O)c21 measured_metric="normalized growth" assay_result=1.01
molecule="CC1(C)CC[C@]2(C(=O)O)CC[C@]3(C)C(=CCC4[C@@]5(C)CC[C@@H](O)C(C)(C)C5CC[C@]43C)C2C1 (stereo partly specified)" measured_metric="normalized growth" assay_result=1.03
molecule=COc1ccc2c(c1)c(CC(=O)O)c(C)n2C(=O)c1ccc(Cl)cc1 measured_metric="normalized growth" assay_result=0.989
molecule=COc1ccc2c3c([nH]c2c1)C(C)=NCC3 measured_metric="normalized growth" assay_result=1
molecule=COc1cc(N)c(Cl)cc1C(=O)NC1CCN(Cc2ccccc2)CC1 measured_metric="normalized growth" assay_result=0.994
molecule=Cc1cn([C@H]2C[C@H](N=[N+]=[N-])[C@@H](CO)O2)c(=O)[nH]c1=O measured_metric="normalized growth" assay_result=0.991
